Source: patent US9216992B2

Test Target: human Kv1.3 (Homo sapiens, UniProt P22001)
Construct: expressed in transfected cells; host or cells: stably transfected cells
Sequence (P22001 whole entry): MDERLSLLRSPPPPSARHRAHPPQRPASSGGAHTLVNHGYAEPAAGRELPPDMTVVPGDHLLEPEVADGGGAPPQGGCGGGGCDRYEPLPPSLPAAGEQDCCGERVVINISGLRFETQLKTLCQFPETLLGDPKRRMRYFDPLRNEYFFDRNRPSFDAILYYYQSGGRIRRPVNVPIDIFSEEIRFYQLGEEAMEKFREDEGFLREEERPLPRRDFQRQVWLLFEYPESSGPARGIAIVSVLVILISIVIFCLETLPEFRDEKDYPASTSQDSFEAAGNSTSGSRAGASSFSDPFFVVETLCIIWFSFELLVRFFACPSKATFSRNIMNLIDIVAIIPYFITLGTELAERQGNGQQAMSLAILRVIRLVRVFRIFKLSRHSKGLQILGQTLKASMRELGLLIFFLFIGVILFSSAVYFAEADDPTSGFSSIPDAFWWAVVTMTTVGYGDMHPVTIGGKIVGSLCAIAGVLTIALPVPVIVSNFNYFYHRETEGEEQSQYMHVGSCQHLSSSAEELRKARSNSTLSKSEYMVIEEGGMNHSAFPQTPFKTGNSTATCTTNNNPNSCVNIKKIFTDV
Procedure Summary: Kv1.3 Autopatch Electrophysiology
Format: cell-based
Test Parameters: 1 μM compound; CHO cells stably transfected with human Kv1.3; AutoPatch whole cell mode; room temperature; read-out: Kv 1.3% Inhibition at 1 μM

# Chemical Smiles, inhibition at 1 µM (%)
data = [
    ("Cc1ccc(-c2csc3c(-c4cccc(S(C)(=O)=O)c4)cnc(NCc4ccccc4)c23)cc1", 26.3),
    ("Cc1ccc(-c2csc3c(-c4cccc(C(=O)O)c4)cnc(NCc4ccccc4)c23)cc1", 41.3),
    ("Cc1ccc(-c2csc3c(-c4ccc(F)cc4)cnc(NCc4ccccc4)c23)cc1", 34),
    ("Fc1ccc(-c2csc3ccnc(NCc4ccco4)c23)cc1", 45.9),
    ("c1ccc(-c2csc3ccnc(NCc4ccc5c(c4)OCCO5)c23)cc1", 76.9),
    ("Cc1ccc(-c2cnc(NCc3ccccc3)c3c(-c4ccc(C)cc4)csc23)cc1", 24.4),
    ("Cc1ccc(-c2csc3c(-c4cccc(F)c4)cnc(NCc4ccccc4)c23)cc1", 29.6),
    ("Fc1ccc(-c2csc3ccnc(NCc4cccs4)c23)cc1", 91.9),
    ("c1ccc(-c2csc3ccnc(NCc4cccs4)c23)cc1", 91.2),
]
